Biological target: AKT1 E17K (Homo sapiens (Human), UniProt P31749, E17K)
Sequence (P31749 whole entry E17K): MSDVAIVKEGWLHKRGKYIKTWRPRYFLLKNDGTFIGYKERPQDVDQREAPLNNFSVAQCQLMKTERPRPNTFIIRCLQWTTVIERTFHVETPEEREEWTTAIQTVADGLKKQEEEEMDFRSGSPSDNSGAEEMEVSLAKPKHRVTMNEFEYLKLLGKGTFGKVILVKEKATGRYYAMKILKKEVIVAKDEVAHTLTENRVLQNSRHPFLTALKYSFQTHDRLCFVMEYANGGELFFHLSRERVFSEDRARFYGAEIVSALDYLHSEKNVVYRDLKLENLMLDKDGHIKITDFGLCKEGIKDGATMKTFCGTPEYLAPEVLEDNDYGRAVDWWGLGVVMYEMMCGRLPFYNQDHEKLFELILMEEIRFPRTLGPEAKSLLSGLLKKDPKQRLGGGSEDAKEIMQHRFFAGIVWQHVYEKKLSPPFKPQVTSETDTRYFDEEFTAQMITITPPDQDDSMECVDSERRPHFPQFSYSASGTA
Assay: Live cell target engagement (NanoBRET) in HEK293 cells
Format: cell-based
Details: HEK293, 2 hours at 37° C.
pIC50: −log10 of the molar value.
Readings of pIC50 for the listed compounds
quantity: pIC50

{"compound": "Nc1ncccc1-c1nc2ccc(-c3ccccc3)nc2n1-c1ccc(CNC(=O)c2ccc(C=O)c(O)c2)cc1", "observed": "> 7.00"}
{"compound": "Nc1ncccc1-c1nc2ccc(-c3cccc(N4CCOCC4)c3)nc2n1-c1ccc(CNC(=O)Cc2ccc(C=O)c(O)c2)cc1", "observed": "> 7.00"}
{"compound": "CS(=O)(=O)Nc1cccc(-c2ccc3nc(-c4cccnc4N)n(-c4ccc(CNCCc5ccc(C=O)c(O)c5)cc4)c3n2)c1", "observed": "> 7.00"}
{"compound": "Nc1ncccc1-c1nc2ccc(-c3ccccc3)nc2n1-c1ccc(C2(NCCc3ccc(C=O)c(O)c3)CCC2)cc1", "observed": "< 6.30"}
{"compound": "Nc1ncccc1-c1nc2cccnc2n1-c1ccc(CCC(=O)Nc2ccc(C=O)c(O)c2)cc1", "observed": "> 7.00"}
{"compound": "Nc1ncccc1-c1nc2ccc(OC3CC3)nc2n1-c1ccc(CNC(=O)Cc2ccc(C=O)c(O)c2)cc1", "observed": "> 7.00"}
{"compound": "Nc1ncccc1-c1nc2ccc(N3CCOCC3)nc2n1-c1ccc(CNC(=O)c2ccc(O)c(C=O)c2)cc1", "observed": "6.30 to 7.00"}
{"compound": "Cn1cc(C(=O)Nc2cc(CC(=O)NCc3ccc(-n4c(-c5cccnc5N)nc5cccnc54)cc3)ccc2C=O)cn1", "observed": "6.30 to 7.00"}
{"compound": "Nc1ncccc1-c1nc2ccc(-c3ccccc3)nc2n1-c1ccc(N2CC(NCc3ccc(C=O)c(O)c3)C2)cc1", "observed": "6.30 to 7.00"}
{"compound": "Nc1ncccc1-c1nc2cccnc2n1-c1ccc(CNC(=O)c2cc(C=O)c(O)cn2)cc1", "observed": "< 6.30"}
{"compound": "Nc1ncccc1-c1nc2ccc(-c3ccccc3)nc2n1-c1ccc(CNc2cc(-c3ccc(O)c(C=O)c3)ccn2)cc1", "observed": "6.30 to 7.00"}
{"compound": "CC1(c2ccc3nc(-c4cccnc4N)n(-c4ccc(CNC(=O)Cc5ccc(C=O)c(O)c5)cc4)c3n2)CC1", "observed": "> 7.00"}
{"compound": "Nc1ncccc1-c1nc2ccc(-c3cccnc3)nc2n1-c1ccc(CNC(=O)c2ccc(O)c(C=O)c2)cc1", "observed": "> 7.00"}
{"compound": "CC(NC(=O)Cc1ccc(O)c(C=O)c1)c1ccc(-n2c(-c3cccnc3N)nc3ccc(-c4ccccc4)nc32)cc1 (centres unmarked)", "observed": "> 7.00"}

* * *

Readings of pIC50 for the listed molecules
Target: AKT2 (Homo sapiens (Human))
Sequence (P31751 whole entry): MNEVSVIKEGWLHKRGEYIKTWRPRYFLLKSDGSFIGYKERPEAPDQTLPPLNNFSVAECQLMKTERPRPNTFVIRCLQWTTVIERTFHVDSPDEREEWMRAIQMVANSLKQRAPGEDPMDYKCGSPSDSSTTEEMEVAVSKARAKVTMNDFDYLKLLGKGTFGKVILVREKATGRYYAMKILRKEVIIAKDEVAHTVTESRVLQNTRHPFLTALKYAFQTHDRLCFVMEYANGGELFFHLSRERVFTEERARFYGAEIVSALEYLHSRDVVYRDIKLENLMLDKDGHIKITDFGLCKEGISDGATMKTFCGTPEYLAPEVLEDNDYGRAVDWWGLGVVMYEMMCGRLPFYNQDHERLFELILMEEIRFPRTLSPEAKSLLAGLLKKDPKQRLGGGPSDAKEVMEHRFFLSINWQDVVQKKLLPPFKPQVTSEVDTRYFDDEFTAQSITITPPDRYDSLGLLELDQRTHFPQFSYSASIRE
Assay: Live cell target engagement (NanoBRET) in HEK293 cells
Assay type: cell-based
Details: HEK293, 2 hours at 37° C.
pIC50: −log10 of the molar value.
quantity: pIC50

{"molecule": "Cc1ccc2nc(-c3cccnc3N)n(-c3ccc(C4(NC(=O)Cc5ccc(C=O)c(O)c5F)CC4)cc3)c2n1", "test-target": "AKT2 (Homo sapiens (Human))", "quantity": "pIC50", "observed": "6.30 to 7.00"}
{"molecule": "Nc1ncccc1-c1nc2ccc(-c3ccccc3)nc2n1-c1ccc(CNC(=O)C2(c3cnc(C=O)c(O)c3)CC2)cc1", "test-target": "AKT2 (Homo sapiens (Human))", "quantity": "pIC50", "observed": "< 6.30"}
{"molecule": "Nc1ncccc1-c1nc2ccc(-c3ccccc3)nc2n1-c1ccc(CCNCc2ccc(C=O)c(O)c2F)cc1", "test-target": "AKT2 (Homo sapiens (Human))", "quantity": "pIC50", "observed": "6.30 to 7.00"}
{"molecule": "Nc1ncccc1-c1nc2ccc(-c3ccccc3)nc2n1-c1ccc(CNC(=O)c2cc(Br)c(O)c(C=O)c2)cc1", "test-target": "AKT2 (Homo sapiens (Human))", "quantity": "pIC50", "observed": "6.30 to 7.00"}
{"molecule": "CC(NC(=O)Cc1ccc(O)c(C=O)c1)c1ccc(-n2c(-c3cccnc3N)nc3ccc(-c4ccccc4)nc32)cc1 (centres unmarked)", "test-target": "AKT2 (Homo sapiens (Human))", "quantity": "pIC50", "observed": "6.30 to 7.00"}
{"molecule": "Nc1ncccc1-c1nc2ccc(-c3ccccc3)nc2n1-c1ccc(C(=O)NCCc2ccc(C=O)c(O)c2)cn1", "test-target": "AKT2 (Homo sapiens (Human))", "quantity": "pIC50", "observed": "< 6.30"}
{"molecule": "Nc1ncccc1-c1nc2ccc(-c3ccccc3)nc2n1-c1ccc(C(=O)NCc2ccc(O)c(C=O)c2)cc1", "test-target": "AKT2 (Homo sapiens (Human))", "quantity": "pIC50", "observed": "6.30 to 7.00"}
{"molecule": "Nc1ncccc1-c1nc2cc(-c3ccccc3)cnc2n1-c1ccc(CNCCc2ccc(C=O)c(O)c2)cc1", "test-target": "AKT2 (Homo sapiens (Human))", "quantity": "pIC50", "observed": "< 6.30"}
{"molecule": "Nc1ncccc1-c1nc2ccc(-c3ccnc(N4CCOCC4)c3)nc2n1-c1ccc(CNC(=O)Cc2ccc(C=O)c(O)c2)cc1", "test-target": "AKT2 (Homo sapiens (Human))", "quantity": "pIC50", "observed": "< 6.30"}
{"molecule": "Nc1ncccc1-c1nc2ccc(-c3cccc(N4CCOCC4)c3)nc2n1-c1ccc(CNC(=O)Cc2ccc(C=O)c(O)c2F)cc1", "test-target": "AKT2 (Homo sapiens (Human))", "quantity": "pIC50", "observed": "> 7.00"}
{"molecule": "Nc1ncccc1-c1nc2ccc(-c3ccccc3F)nc2n1-c1ccc(CNC(=O)Cc2ccc(C=O)c(O)c2)cc1", "test-target": "AKT2 (Homo sapiens (Human))", "quantity": "pIC50", "observed": "6.30 to 7.00"}
{"molecule": "Nc1ncccc1-c1nc2ccc(Cl)nc2n1-c1ccc(CNCCc2ccc(C=O)c(O)c2)cc1", "test-target": "AKT2 (Homo sapiens (Human))", "quantity": "pIC50", "observed": "< 6.30"}
{"molecule": "Nc1ncccc1-c1nc2ccc(OC3CC3)nc2n1-c1ccc(CNC(=O)Cc2ccc(C=O)c(O)c2)cc1", "test-target": "AKT2 (Homo sapiens (Human))", "quantity": "pIC50", "observed": "< 6.30"}
{"molecule": "Nc1ncccc1-c1nc2cccnc2n1-c1ccc(CNC(=O)C(F)(F)c2ccc(C=O)c(O)c2)cc1", "test-target": "AKT2 (Homo sapiens (Human))", "quantity": "pIC50", "observed": "< 6.30"}
